Experiment: Oral pharmacokinetics of PTX
Format: in vivo, rats
Conditions: female, rat, plasma; oral gavage, 20 mg/kg
metric name: Cmax (ng/mL)
Report only the number, with the unit ng/mL understood.

compound CC(=O)O[C@H]1C(=O)[C@@]2(C)[C@H]([C@H](OC(=O)c3ccccc3)[C@]3(O)C[C@H](OC(=O)[C@H](O)[C@@H](NC(=O)c4ccccc4)c4ccccc4)C(C)=C1C3(C)C)[C@]1(OC(C)=O)CO[C@@H]1C[C@@H]2O [PTX, paclitaxel] , Cmax observed: 70.7

* * *

Test: in vitro
Conditions: rat, pH 6.5
metric name: Papp A→B at 1 mg/mL
Answer with the figure and its unit, nothing else.

According to the records, this compound CC(=O)O[C@H]1C(=O)[C@@]2(C)[C@H]([C@H](OC(=O)c3ccccc3)[C@]3(O)C[C@H](OC(=O)[C@H](O)[C@@H](NC(=O)c4ccccc4)c4ccccc4)C(C)=C1C3(C)C)[C@]1(OC(C)=O)CO[C@@H]1C[C@@H]2O [PTX, paclitaxel] displays Papp A→B at 1 mg/mL of 0.43 ×10⁻⁶ cm/s

* * *

Assay: Oral pharmacokinetics of PTX
Format: in vivo, rats
Details: female, rat, plasma; oral gavage, 20 mg/kg; read-out: MRT 0-96
metric name: MRT last
Provide the measurement as a number trailed by its unit.

The molecule CC(=O)O[C@H]1C(=O)[C@@]2(C)[C@H]([C@H](OC(=O)c3ccccc3)[C@]3(O)C[C@H](OC(=O)[C@H](O)[C@@H](NC(=O)c4ccccc4)c4ccccc4)C(C)=C1C3(C)C)[C@]1(OC(C)=O)CO[C@@H]1C[C@@H]2O showed MRT last equal to 54.9 h

* * *

Assay: Oral pharmacokinetics of PTX
Type: in vivo, rats
Settings: female, rat, plasma; oral gavage, 20 mg/kg
metric name: half-life (h)
Unit h implied. Number only.

Lab book: half-life of CC(=O)O[C@H]1C(=O)[C@@]2(C)[C@H]([C@H](OC(=O)c3ccccc3)[C@]3(O)C[C@H](OC(=O)[C@H](O)[C@@H](NC(=O)c4ccccc4)c4ccccc4)C(C)=C1C3(C)C)[C@]1(OC(C)=O)CO[C@@H]1C[C@@H]2O [PTX, paclitaxel] noted as 32.9

* * *

Assay: Oral pharmacokinetics of PTX
Format: in vivo, rats
Settings: female, rat, plasma, po, 20 mg/kg
metric name: bioavailability (%)
Quick note: give the figure in %, leave out the unit.

Reported bioavailability for CC(=O)O[C@H]1C(=O)[C@@]2(C)[C@H]([C@H](OC(=O)c3ccccc3)[C@]3(O)C[C@H](OC(=O)[C@H](O)[C@@H](NC(=O)c4ccccc4)c4ccccc4)C(C)=C1C3(C)C)[C@]1(OC(C)=O)CO[C@@H]1C[C@@H]2O [PTX, paclitaxel] was 7.5

* * *

Test: Oral pharmacokinetics of PTX
Format: in vivo, rats
Conditions: female, rat, plasma; oral gavage, 20 mg/kg; read-out: Tmax
metric name: Tmax (h)
Field format: number, assumed h, no unit text.

Tmax reading for CC(=O)O[C@H]1C(=O)[C@@]2(C)[C@H]([C@H](OC(=O)c3ccccc3)[C@]3(O)C[C@H](OC(=O)[C@H](O)[C@@H](NC(=O)c4ccccc4)c4ccccc4)C(C)=C1C3(C)C)[C@]1(OC(C)=O)CO[C@@H]1C[C@@H]2O : 4
